target: Cytochrome P450 1A2 (Homo sapiens); assay: Cytochrome panel assay with activity outcomes; conditions: recombinant CYP, pro-luciferin dealkylation, luminescence, p450-cyp1a2; series mostly up to 57.1 µM
Out of some 16,000 compounds screened, about 5,700 (36%) were called active. Roughly 24% stayed inconclusive and do not appear here. Some of the results follow.
measureName: AC50

COc1ccccc1CN1CCC2(CC1)CCN(C(C)=O)CC2 | inactive
O=C(c1cc(C(F)(F)F)cc(C(F)(F)F)c1)N1CCC2(CC1)CN(Cc1ccccc1)C2 | inactive
O=C(c1ccncc1)N1CCC2(CCCN(Cc3ccncc3)C2)CC1 | 6.31 µM (active)
CC(=O)Nc1c(C(=O)N2CCOCC2)cnn1-c1ccc(C)c(C)c1 | inactive
O=C(c1cc(C(F)(F)F)cc(C(F)(F)F)c1)N1CCC[C@@]2(CCN(Cc3ccccc3)C2)C1 | 25.1 µM (active)

Task: Provide value of AC50 for this record tested with Cytochrome P450 1A2 (Homo sapiens): `O=C(c1cc(C(F)(F)F)cc(C(F)(F)F)c1)N1CCC2(CCN(Cc3ccccc3)CC2)CC1`
Result: inactive

Task: Hi! What's the reported AC50 for `CC(=O)Nc1c(C)nn(-c2ccc(C)c(C)c2)c1C` on Cytochrome P450 1A2 (Homo sapiens)?
Result: 14.1 µM (active)

Task: Short answer please: AC50, Cytochrome P450 1A2 (Homo sapiens), entry `O=C(c1cnccn1)N1CCC[C@@]2(CCN(Cc3nccs3)C2)C1`
Result: inactive

Task: Form entry - test system: Cytochrome P450 1A2 (Homo sapiens); read-out: AC50; compound: `CCCCCc1nnc(NC(=O)C(=O)OCC)s1`
Result: inactive

Task: Query AC50 on Cytochrome P450 1A2 (Homo sapiens) for `CC(C)NC(=O)N1CCCC2(CCN(C(=O)c3ccncc3)CC2)C1`
Result: inactive
